Experiment: Oral bioavailability in Sprague-Dawley rat at 10 mg/kg by non-compartmental analysis
Type: ADME, organism-based
Conditions: in vivo
test readout: bioavailability (%)
Reply with just the number (in %).

Reported bioavailability of `CC(=O)c1ccc(-c2cccc(NC(=O)CCc3cccc4c3B(O)OC4)c2)cc1` : 4.6

---
Reported bioavailability of `COc1cccc(-c2cccc(NC(=O)CCc3cccc4c3B(O)OC4)c2)c1` : 19.5

* * *

Assay: Tmax in Sprague-Dawley rat at 10 mg/kg, po by non-compartmental analysis
Assay type: ADME, organism-based
Settings: in vivo
test readout: Tmax (min)
Reply with just the number (in min).

Reported Tmax of `COc1cccc(-c2cccc(NC(=O)CCc3cccc4c3B(O)OC4)c2)c1` : 12

---
Reported Tmax of `CC(=O)c1ccc(-c2cccc(NC(=O)CCc3cccc4c3B(O)OC4)c2)cc1` : 15

Attribution: ChEMBL document CHEMBL4364293
